Test system: SARS-CoV-2
PROTOCOL_SUMMARY: microbe, parasite or virus in culture
Format: functional, organism-based, Chlorocebus sabaeus, Vero C1008
APPLIED_CONDITIONS: Severe acute respiratory syndrome coronavirus 2, Vero C1008, 48 h
pIC50: −log10 of the molar value.
Measured pIC50, listed per entry.

COMPOUND	COMPARISON_SIGN	pIC50
O=c1cc(N2CCOCC2)oc2c(-c3cccc4c3sc3ccccc34)cccc12	=	5.42
Nc1nccc2c1ncn2[C@@H]1C=C(CO)[C@@H](O)[C@H]1O	=	5.68
CC1=NN(c2ccc(C)c(C)c2)C(=O)/C1=N\Nc1cccc(-c2cccc(C(=O)O)c2)c1O	<	4.48
CCN(CC)Cc1cc(Nc2ccnc3cc(Cl)ccc23)ccc1O	=	5.39
N[C@H]1CC[C@H](N[C@@H]2C[C@H]2c2ccccc2)CC1	<	4.48
CCCCCCCCCCCCCCOc1ccc(C(=O)O)o1	=	5.39
O=C1OC2(c3ccc(O)cc3Oc3cc(O)ccc32)c2ccccc21	=	6.17
C[C@@H](OC[C@@]1(c2ccccc2)CC[C@]2(CCC(=O)N2)CN1)c1cc(C(F)(F)F)cc(C(F)(F)F)c1	=	4.71
CC(C)(C)c1cc(/C=C(\C#N)C(N)=S)cc(C(C)(C)C)c1O	<	4.48
CCS(=O)(=O)c1ccc(CC(=O)Nc2cc(Cl)c(-c3ccccc3OC(F)(F)F)c(Cl)c2)cc1	=	4.68
CC(C)n1nc(-c2cc3cc(O)ccc3[nH]2)c2c(N)ncnc21	<	4.48
O=C1C(=Cc2cccnc2)C(=O)c2ccccc21	<	4.48
C[C@H]1Cc2c([nH]c3cc(Cl)c(F)cc23)[C@@]2(N1)C(=O)Nc1ccc(Cl)cc12	<	4.48
OCCCNc1cc(-c2ccnc(Nc3cccc(Cl)c3)n2)ccn1	=	5.10
N#Cc1cc2c(OCC(O)CN3CCN(C(c4ccccc4)c4ccccc4)CC3)cccc2[nH]1 (racemic; form 1)	=	4.59
Cc1[nH]c(/C=C2\C(=O)Nc3cc(-c4ccccc4)ccc32)c(C)c1CCC(=O)O	=	5.39
CC(C)(C)c1cc(C=C(C#N)C#N)cc(Br)c1O	=	5.06
CC(C)c1cccc2c(-c3ccccc3)cc(-c3ccc(-c4ccc(C(=O)O)cc4)[nH]3)nc12	<	4.48
CCN1CCC(n2cc(CNc3cc(Cl)c4ncc(C#N)c(Nc5ccc(F)c(Cl)c5)c4c3)nn2)CC1	=	4.78

* * *

Measured selectivity ratio, listed per entry.
PROTOCOL_SUMMARY: in vitro
APPLIED_CONDITIONS: chlorocebus sabaeus, VERO-E6 cells, Selectivity index
MEASURED_QUANTITY: selectivity ratio

COMPOUND	MEASURED_QUANTITY	MEASURED
COc1ccc(C[C@H]2NC[C@H](O)[C@H]2OC(C)=O)cc1	selectivity ratio	1.11
Cc1cnc(Nc2ccc(F)cc2Cl)nc1-c1c[nH]c(C(=O)N[C@H](CO)c2cccc(Cl)c2)c1	selectivity ratio	0.35
N#Cc1cc2c(OCC(O)CN3CCN(C(c4ccccc4)c4ccccc4)CC3)cccc2[nH]1 (racemic; form 1)	selectivity ratio	0.49
Cc1cc2c(F)c(Oc3ncnn4cc(OC[C@@H](C)OC(=O)[C@H](C)N)c(C)c34)ccc2[nH]1 [BRIVANIB ALANINATE]	selectivity ratio	0.4
CC[C@H](CC#N)OC(=O)N[C@@H](C)c1cccc(NC(=O)Nc2ccc(-c3cnco3)c(OC)c2)c1	selectivity ratio	0.67
O=c1cc(N2CCOCC2)oc2c(-c3cccc4c3sc3ccccc34)cccc12	selectivity ratio	0.15
Clc1ccccc1CNC[C@H]1CC[C@H](CNCc2ccccc2Cl)CC1	selectivity ratio	1.36
Cc1[nH]c(/C=C2\C(=O)Nc3ccc(S(=O)(=O)N(C)c4cccc(Cl)c4)cc32)c(C)c1C(=O)N1CCN(C)CC1	selectivity ratio	0.96

Data provenance: ChEMBL document CHEMBL4495565
